system: oat, wild (wild oat, Avena fatua); assay: Test A postemergence, oat, wild; type: in vivo; settings: Postemergence, 125 g ai/ha; 0 to 100 scale, 10 days
Metric Name: Plant response rating, Oat, Wild

[
  {
    "Compound": "Cc1ccc2cc3ccc(F)cc3c(-c3c(OCOC(=O)C(C)(C)C)c(C)nn(C)c3=O)c2c1 [Compound 21]",
    "Measured Result": 40
  },
  {
    "Compound": "Cc1ccc2cc3ccc(C)cc3c(-c3c(OCOC(=O)C(C)(C)C)c(Cl)nn(C)c3=O)c2c1 [Compound 9]",
    "Measured Result": 0
  },
  {
    "Compound": "COC(=O)OCOc1c(C)nn(C)c(=O)c1-c1c2cc(C)ccc2cc2ccc(F)cc12 [Compound 15]",
    "Measured Result": 40
  },
  {
    "Compound": "Cc1ccc2cc3ccc(F)cc3c(-c3c(OCOC(=O)OC(C)C)c(C)nn(C)c3=O)c2c1 [Compound 17]",
    "Measured Result": 30
  },
  {
    "Compound": "Cc1ccc2cc3ccc(C)cc3c(-c3c(OCOC(=O)N(C)C)c(Cl)nn(C)c3=O)c2c1 [Compound 18]",
    "Measured Result": 0
  }
]

---

test system: kochia (Bassia scoparia); assay: Test A preemergence, kochia; type: in vivo; settings: 31 g ai/ha, 0 to 100 scale, 10 days
# reported Plant response rating, Kochia; entries follow

[
  {
    "Molecule": "Cc1ccc2cc3ccc(C)cc3c(-c3c(OCOC(=O)N(C)C)c(Cl)nn(C)c3=O)c2c1",
    "Plant response rating, Kochia": 0
  },
  {
    "Molecule": "CC(=O)OCOc1c(C)nn(C)c(=O)c1-c1c2cc(C)ccc2cc2c(F)cc(C)cc12",
    "Plant response rating, Kochia": 20
  },
  {
    "Molecule": "CC(=O)OCOc1c(Cl)nn(C)c(=O)c1-c1c2cc(C)ccc2cc2ccc(C)cc12",
    "Plant response rating, Kochia": 60
  },
  {
    "Molecule": "Cc1ccc2ccc(F)cc2c1-c1c(OCOC(=O)C(C)(C)C)c(Cl)nn(C)c1=O",
    "Plant response rating, Kochia": 20
  },
  {
    "Molecule": "Cc1ccc2cc3ccc(F)cc3c(-c3c(OCOC(=O)N(C)C)c(C)nn(C)c3=O)c2c1",
    "Plant response rating, Kochia": 0
  },
  {
    "Molecule": "Cn1nc(Cl)c(OCOC(=O)C(C)(C)C)c(-c2c3ccccc3cc3ccccc23)c1=O",
    "Plant response rating, Kochia": 0
  },
  {
    "Molecule": "COc1cc(OC)c2cc3ccc(F)cc3c(-c3c(OCOC(C)=O)c(C)nn(C)c3=O)c2c1",
    "Plant response rating, Kochia": 0
  },
  {
    "Molecule": "Cc1ccc2ccccc2c1-c1c(OCOC(=O)C(C)(C)C)c(Cl)nn(C)c1=O",
    "Plant response rating, Kochia": 10
  },
  {
    "Molecule": "CC(=O)OCOc1c(C)nn(C)c(=O)c1-c1c2ccccc2c(Cl)c2ccccc12",
    "Plant response rating, Kochia": 0
  },
  {
    "Molecule": "CC(=O)OCOc1c(C)nn(C)c(=O)c1-c1c2ccccc2cc2ccccc12",
    "Plant response rating, Kochia": 0
  },
  {
    "Molecule": "COc1ccc2cc3ccc(F)cc3c(-c3c(OCOC(C)=O)c(C)nn(C)c3=O)c2c1",
    "Plant response rating, Kochia": 20
  },
  {
    "Molecule": "Cc1cc(Cl)c2ccc(F)cc2c1-c1c(OCOC(=O)C(C)(C)C)c(C)nn(C)c1=O",
    "Plant response rating, Kochia": 20
  },
  {
    "Molecule": "Cc1ccc2cc3ccc(F)cc3c(-c3c(OCOC(=O)C(C)(C)C)c(C)nn(C)c3=O)c2c1",
    "Plant response rating, Kochia": 100
  },
  {
    "Molecule": "Cc1cc(C)c2cc3ccccc3c(-c3c(OCOC(=O)C(C)(C)C)c(Cl)nn(C)c3=O)c2c1",
    "Plant response rating, Kochia": 0
  }
]

---

tested on: blackgrass (Alopecurus myosuroides); assay: Test A postemergence, blackgrass; format: in vivo; conditions: Alopecurus myosuroides, post-emergence, 240 h; Postemergence, 125 g ai/ha; 0 to 100 scale, 10 days; read-out: Plant response rating, Blackgrass
API: label(entry) gives Met if the entry's pest or weed control at 125 g/ha is strictly smaller than 20%; on equality or larger values it gives Not met.

[
  {
    "Molecule": "COC(=O)OCOc1c(C)nn(C)c(=O)c1-c1c2cc(C)ccc2cc2ccc(F)cc12",
    "Cat": "Met"
  },
  {
    "Molecule": "CC(=O)OCOc1c(Cl)nn(C)c(=O)c1-c1c(C)ccc2ccc(C)cc12",
    "Cat": "Not met"
  },
  {
    "Molecule": "CC(=O)OCOc1c(Cl)nn(C)c(=O)c1-c1c(C)ccc2ccccc12",
    "Cat": "Not met"
  },
  {
    "Molecule": "CC(=O)OCOc1c(C)nn(C)c(=O)c1-c1c(Br)sc2ccc(F)cc12",
    "Cat": "Not met"
  },
  {
    "Molecule": "COC(=O)OCOc1c(Cl)nn(C)c(=O)c1-c1c2cc(C)ccc2cc2ccc(C)cc12",
    "Cat": "Met"
  },
  {
    "Molecule": "CC(=O)OCOc1c(Cl)nn(C)c(=O)c1-c1c2ccccc2cc2ccccc12",
    "Cat": "Met"
  },
  {
    "Molecule": "CC(=O)OCOc1c(Cl)nn(C)c(=O)c1-c1c2ccccc2c(Cl)c2ccccc12",
    "Cat": "Met"
  },
  {
    "Molecule": "CC(=O)OCOc1c(Cl)nn(C)c(=O)c1-c1c(C)sc2cccc(Cl)c12",
    "Cat": "Met"
  },
  {
    "Molecule": "Cc1ccc2cc3ccc(C)cc3c(-c3c(OCOC(=O)C(C)(C)C)c(Cl)nn(C)c3=O)c2c1",
    "Cat": "Met"
  }
]

---

# reported Plant response rating, Barnyardgrass; entries follow
test system: barnyardgrass (Echinochloa crus-galli); assay: Test A postemergence, barnyardgrass; format: in vivo; details: Postemergence, 31 g ai/ha; 0 to 100 scale, 10 days
Metric Name: Plant response rating, Barnyardgrass

[
  {
    "Molecule": "CC(=O)OCOc1c(C)nn(C)c(=O)c1-c1c2ccccc2c(Cl)c2ccccc12",
    "Study Target": "barnyardgrass (Echinochloa crus-galli)",
    "Measured Result": 10
  },
  {
    "Molecule": "Cc1ccc2ccccc2c1-c1c(OCOC(=O)C(C)C)c(Cl)nn(C)c1=O",
    "Study Target": "barnyardgrass (Echinochloa crus-galli)",
    "Measured Result": 20
  },
  {
    "Molecule": "CC(=O)OCOc1c(Cl)nn(C)c(=O)c1-c1c2ccccc2cc2ccccc12",
    "Study Target": "barnyardgrass (Echinochloa crus-galli)",
    "Measured Result": 20
  },
  {
    "Molecule": "CC(=O)OCOc1c(Cl)nn(C)c(=O)c1-c1c2ccccc2c(Cl)c2ccccc12",
    "Study Target": "barnyardgrass (Echinochloa crus-galli)",
    "Measured Result": 20
  }
]

---

tested on: goosegrass (Eleusine indica); experiment: Test A postemergence, goosegrass; assay type: in vivo; conditions: Postemergence, 125 g ai/ha; 0 to 100 scale, 10 days
Metric Name: Plant response rating, Goosegrass

[
  {
    "Molecule": "Cc1ccc2cc3ccc(C)cc3c(-c3c(OCOC(=O)C(C)(C)C)c(Cl)nn(C)c3=O)c2c1",
    "Measured Result": 30
  },
  {
    "Molecule": "Cc1cc(C)c2cc3ccccc3c(-c3c(OCOC(=O)C(C)(C)C)c(Cl)nn(C)c3=O)c2c1",
    "Measured Result": 30
  },
  {
    "Molecule": "Cc1ccc2cc3ccc(F)cc3c(-c3c(OCOC(=O)C(C)(C)C)c(C)nn(C)c3=O)c2c1",
    "Measured Result": 30
  }
]

---

# reported Plant response rating, Kochia; entries follow
test system: kochia (Bassia scoparia); assay: Test A postemergence, kochia; assay type: in vivo; conditions: Postemergence, 125 g ai/ha; 0 to 100 scale, 10 days
Metric Name: Plant response rating, Kochia

[
  {
    "Compound": "Cc1ccc2cc3ccc(C)cc3c(-c3c(OCOC(=O)N(C)C)c(Cl)nn(C)c3=O)c2c1 [Compound 18]",
    "Metric Name": "Plant response rating, Kochia",
    "Measured Result": 70
  },
  {
    "Compound": "Cc1ccc2ccccc2c1-c1c(OCOC(=O)C(C)(C)C)c(Cl)nn(C)c1=O [Compound 7]",
    "Metric Name": "Plant response rating, Kochia",
    "Measured Result": 70
  },
  {
    "Compound": "CC(=O)OCOc1c(C)nn(C)c(=O)c1-c1c2cc(F)ccc2cc2c(C)cc(C)cc12 [Compound 27]",
    "Metric Name": "Plant response rating, Kochia",
    "Measured Result": 70
  },
  {
    "Compound": "Cc1ccc2cc3ccc(F)cc3c(-c3c(OCOC(=O)N(C)C)c(C)nn(C)c3=O)c2c1 [Compound 16]",
    "Metric Name": "Plant response rating, Kochia",
    "Measured Result": 80
  },
  {
    "Compound": "CC(=O)OCOc1c(C)nn(C)c(=O)c1-c1c2ccccc2c(Cl)c2ccccc12 [Compound 12]",
    "Metric Name": "Plant response rating, Kochia",
    "Measured Result": 80
  },
  {
    "Compound": "Cc1ccc2cc3ccc(F)cc3c(-c3c(OCOC(=O)C(C)(C)C)c(C)nn(C)c3=O)c2c1 [Compound 21]",
    "Metric Name": "Plant response rating, Kochia",
    "Measured Result": 100
  },
  {
    "Compound": "CC(=O)OCOc1c(C)nn(C)c(=O)c1-c1c2ccccc2c(Br)c2ccccc12 [Compound 14]",
    "Metric Name": "Plant response rating, Kochia",
    "Measured Result": 60
  }
]
